assay: Plasma pharmacokinetic profile in mice after ip dosing; type: in vivo, C57BL/6J mice; details: male, C57BL/6, mouse, 100 ug/kg, 100 μg/kg ip, mice n = 6

{"columns": ["Structure smiles", "Quantity unit", "Cmax"],
 "data": [
  ["CCCCCCCCCCCCCC[C@@H](O)[C@@H](O)[C@H](CO[C@H]1O[C@H](CO)[C@H](O)[C@H](O)[C@H]1O)NC(=O)CCCCCCCCCCCNC(=O)c1ccccc1", "ng/mL", 92.8]
]}

---

Recorded measurements of half-life, one per entry
test: Metabolic stability, human liver microsome; type: in vitro ADME; details: liver microsomes, read-out: metabolic stability (liver microsome, T1/2) human

{"columns": ["Structure smiles", "half-life"],
 "data": [
  ["CCCCCCCCCCCCCC[C@@H](O)[C@@H](O)[C@H](CO[C@H]1O[C@H](CO)[C@H](O)[C@H](O)[C@H]1O)NC(=O)CCCCCCCCCCCNC(=O)CCCCCC", "> 200 min"],
  ["CCCCCCCCCCCCCC[C@@H](O)[C@@H](O)[C@H](CO[C@H]1O[C@H](CO)[C@H](O)[C@H](O)[C@H]1O)NC(=O)CCCCCCCCCCCNC(=O)c1ccccc1", "< 15 min"],
  ["CCCCCCCCCCCCCC[C@@H](O)[C@@H](O)[C@H](CO[C@H]1O[C@H](CO)[C@H](O)[C@H](O)[C@H]1O)NC(=O)CCCCCCCCCCCNC(=O)CCCCCCCCCCCC", "60 min"],
  ["CCCCCCCCCCCCCC[C@@H](O)[C@@H](O)[C@H](CO[C@H]1O[C@H](CO)[C@H](O)[C@H](O)[C@H]1O)NC(=O)CCCCCCCCCCCNC(=O)CCCCCCCNC(=O)CC", "< 15 min"],
  ["CCCCCCCCCCCCCC[C@@H](O)[C@@H](O)[C@H](CO[C@H]1O[C@H](CO)[C@H](O)[C@H](O)[C@H]1O)NC(=O)CCCCCCCCCCCN(C)C(=O)CCCCCCCCCCCC", "15 min"],
  ["CCCCCCCCCCCCCC[C@@H](O)[C@@H](O)[C@H](CO[C@H]1O[C@H](CO)[C@H](O)[C@H](O)[C@H]1O)NC(=O)CCCCCCCCCCCNCCCCCCCCCCCCC", "> 200 min"]
]}
